# systemTested: human CB1 receptor (Homo sapiens)
# Construct: membranes
# Sequence (P21554 whole entry): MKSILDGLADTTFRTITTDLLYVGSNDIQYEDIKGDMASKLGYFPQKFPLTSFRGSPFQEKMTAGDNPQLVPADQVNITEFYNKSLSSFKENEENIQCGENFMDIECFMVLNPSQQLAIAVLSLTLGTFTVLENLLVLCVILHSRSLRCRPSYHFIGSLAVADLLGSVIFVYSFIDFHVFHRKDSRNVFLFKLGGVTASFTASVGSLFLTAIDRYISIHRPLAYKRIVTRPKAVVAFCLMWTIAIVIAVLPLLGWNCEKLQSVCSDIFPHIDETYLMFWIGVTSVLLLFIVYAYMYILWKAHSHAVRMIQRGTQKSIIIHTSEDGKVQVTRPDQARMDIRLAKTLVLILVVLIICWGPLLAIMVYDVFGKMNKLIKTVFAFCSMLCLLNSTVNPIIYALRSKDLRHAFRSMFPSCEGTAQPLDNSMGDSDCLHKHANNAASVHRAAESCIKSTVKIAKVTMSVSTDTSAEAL
# testDetails: Cannabinoid Receptor-1 functional assay: inhibition of CP55940-induced [35S]GTPγS binding to membranes of CHO-K1 cells expressing human CB1
# condition: 3 nM CP55940, hCB1 membranes, [35S]GTPγS SPA; read-out: IC50 value for antagonizing a CB1 receptor agonist
# Excerpt: Transfection and Cell Culture—The cDNA encoding the human CB1 (Cannabinoid Receptor-1) receptor (GenBank accession number NM_016083) was cloned from a human adipose tissue cDNA library and cloned into the eukaryotic expression vector pcDNA3.1 (Invitrogen). […]
Here, each record is paired with measured IC50 data.

Below, 3 compounds whose answers are already recorded.
>>> result("CC(C(=O)O)c1c(C(=O)N(C)[C@H](C)c2ccc(C(F)(F)F)cc2)nn(-c2ccccc2Cl)c1-c1ccc(Cl)cc1 (stereo partly shown) [Compound [1.11]]")
"< 300 nM"
>>> result("C[C@H](NC(=O)c1nn(-c2ccccc2Cl)c(-c2ccc(Cl)cc2)c1Cc1nnn[nH]1)c1ccc(Br)cc1 [[2.4]]")
"300 to 3000 nM"
>>> result("C[C@@H](NC(=O)c1nn(-c2ccccc2Cl)c(-c2ccc(Cl)cc2)c1Cc1nn[nH]n1)c1ccc(F)c(Cl)c1 [[2.24]]")
"< 300 nM"

Can you share its IC50? I mean this compound: CCC(NC(=O)c1nn(-c2ccccc2Cl)c(-c2ccc(Cl)cc2)c1Cc1nnn[nH]1)c1ccc(C(F)(F)F)cc1 (stereo not shown) [[2.15]]
< 300 nM

Can you share its IC50? I mean this compound: CC(C)(NC(=O)c1nn(-c2ccccc2Cl)c(-c2ccc(Cl)cc2)c1Cc1nnn[nH]1)c1ccc(F)cc1 [[2.7]]
300 to 3000 nM

Can you share its IC50? I mean this compound: C[C@H](c1ccc(C(F)(F)F)cc1)N(C)C(=O)c1nn(-c2ccccc2Cl)c(-c2ccc(Cl)cc2)c1CC(=O)O [Compound [1.7]]
< 300 nM

Can you share its IC50? I mean this compound: C[C@@H](NC(=O)c1nn(-c2ccccc2Cl)c(-c2ccc(Cl)cc2)c1CC(=O)O)c1ccc(Br)cc1 [[1.6]]
< 300 nM
